Taken from ChEMBL document CHEMBL1250512.

assay: Cytotoxicity against human HuH7 cells assessed as cell viability at 500 uM after 24 hrs by MTT assay relative to control; assay type: cell-based, Huh-7
Kindly supply the reported viability at 24 h, 500 µM values for the records listed here.
Number only, in %; omit the unit.

Kindly note the recorded viability at 24 h, 500 µM for C[C@H](CCC(=O)O)[C@H]1CC[C@H]2[C@@H]3[C@H](O)C[C@@H]4C[C@H](O)CC[C@]4(C)[C@H]3C[C@H](O)[C@]12C , which is 90.8

Kindly note the recorded viability at 24 h, 500 µM for C[C@H](CCC(=O)O)[C@H]1CC[C@H]2[C@@H]3CC[C@@H]4C[C@H](O)CC[C@]4(C)[C@H]3CC[C@]12C , which is 63.7

Kindly note the recorded viability at 24 h, 500 µM for C[C@H](C(=O)O)[C@H]1CC[C@H]2[C@@H]3[C@@H](O)C[C@@H]4C[C@H](O)CC[C@]4(C)[C@H]3CC[C@]12C , which is 74.8

Kindly note the recorded viability at 24 h, 500 µM for C[C@H](C#N)[C@H]1CC[C@H]2[C@@H]3[C@@H](O)C[C@@H]4C[C@H](O)CC[C@]4(C)[C@H]3CC[C@]12C , which is 87.3

====

assay: Cytotoxicity against human HET-1A cells assessed as cell viability after 24 hrs by MTT assay; type: cell-based
recorded_endpoint: CC50 at 24 h

Kindly note the recorded CC50 at 24 h for CC(=O)O[C@@H]1CC[C@@]2(C)[C@H](CC(=O)[C@@H]3[C@@H]2CC[C@]2(C)[C@@H]([C@H](C)CCC(=O)O)CC[C@@H]32)C1 , which is 366 µM

Kindly note the recorded CC50 at 24 h for C[C@H](CCC(=O)O)[C@H]1CC[C@H]2[C@@H]3[C@@H](O)C[C@@H]4C[C@H](O)CC[C@]4(C)[C@H]3CC[C@]12C , which is 1310 µM

Kindly note the recorded CC50 at 24 h for C[C@H](CCC(=O)O)[C@H]1CC[C@H]2[C@@H]3CC[C@@H]4C[C@H](O)CC[C@]4(C)[C@H]3CC[C@]12C , which is 25 µM

Kindly note the recorded CC50 at 24 h for C[C@H](CCC(=O)O)[C@H]1CC[C@H]2[C@@H]3[C@@H](O)C[C@@H]4C[C@@H](N=[N+]=[N-])CC[C@]4(C)[C@H]3CC[C@]12C , which is 37 µM

Kindly note the recorded CC50 at 24 h for C[C@H](CCC(=O)O)[C@H]1CC[C@H]2[C@@H]3CC[C@@H]4C[C@H](N=[N+]=[N-])CC[C@]4(C)[C@H]3C[C@H](O)[C@]12C , which is 71 µM

Kindly note the recorded CC50 at 24 h for C[C@H](CCC(N)=O)[C@H]1CC[C@H]2[C@@H]3CC[C@@H]4C[C@H](O)CC[C@]4(C)[C@H]3C[C@H](O)[C@]12C , which is 39 µM

Kindly note the recorded CC50 at 24 h for C[C@H](CCC(=O)O)[C@H]1CC[C@H]2[C@@H]3CC[C@@H]4C[C@@H](N=[N+]=[N-])CC[C@]4(C)[C@H]3C[C@H](O)[C@]12C , which is 97 µM

Kindly note the recorded CC50 at 24 h for C[C@H](CCC(=O)O)[C@H]1CC[C@H]2[C@@H]3[C@@H](O)C[C@@H]4C[C@H](N=[N+]=[N-])CC[C@]4(C)[C@H]3CC[C@]12C , which is 45 µM

Kindly note the recorded CC50 at 24 h for C[C@H](CCC(=O)NCC(=O)O)[C@H]1CC[C@H]2[C@@H]3[C@H](O)C[C@@H]4C[C@H](O)CC[C@]4(C)[C@H]3CC[C@]12C [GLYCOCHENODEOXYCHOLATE] , which is 729 µM
